The reported measurements were obtained from paper PMC5540273.

Tested on: ACVR1B;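 further: KINOMEscan kinase panel screen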
Conditions: concentration: 1 μM,replicates: in singlicate; n = 1

{"columns": ["compound", "%Inh, %"],
 "data": [
  ["Cn1cc(-c2cccc3c(N)c(C(N)=O)nnc23)cn1", 28],
  ["COC(=O)Nc1nc2cc(Oc3ccc(NC(=O)Nc4cc(C(F)(F)F)ccc4Cl)cc3)ccc2[nH]1.Cl [GW697465]", 0],
  ["CN1CCN(CCCNc2nccc(-c3c(-c4ccc(F)cc4)nn4cc(C(N)=O)ccc34)n2)CC1 [GW622475]", 94.9],
  ["N#Cc1cccc(C(=O)NC2CCN(c3ccnc(Nc4ccc(F)cc4)n3)C2)c1 (stereo not drawn) [GSK1379708]", 0],
  ["COc1cc2nccc(Nc3ccc(Oc4ccccc4)cc3)c2cc1OC.Cl [GI261656]", 0],
  ["C[C@@H](Oc1cc(-n2cnc3ccc(-c4ccncc4)cc32)sc1C(N)=O)c1ccccc1Cl [GSK483724]", 0],
  ["CS(=O)(=O)c1cccc(CNc2nc(Nc3ccc4c(c3)[C@@H]3C[C@@H]4CNC3=O)ncc2C(F)(F)F)c1", 0],
  ["CS(=O)c1ccc(-c2coc3ccc(-c4n[nH]c(=O)o4)cc23)cc1 (stereo not drawn)", 14],
  ["FC(F)(F)c1cc(Br)cc(Nc2nccc(-c3cnn4ncccc34)n2)c1 [GW810578]", 6],
  ["Cn1ccc2ncnc(Oc3ccc(NC(=O)Nc4cc(C(C)(C)C)on4)c(Cl)c3)c21", 15],
  ["O=C(NOCC1CC1)c1cc(Br)c(F)c(F)c1Nc1ccc(I)cc1Cl", 0],
  ["COC(=O)c1cccc(NC(=O)NC2CCN(c3ccnc(NCc4ccc(F)cc4)n3)CC2)c1 [GSK1379860]", 0],
  ["O=C(Nc1cccc(Oc2ccc3nccn3n2)c1)Nc1cccc(C(F)(F)F)c1", 0],
  ["Cl.Cl.NC[C@H](CC1CCCCC1)NC(=O)c1ccc(-c2ccnc3[nH]ccc23)s1 [GSK1581428]", 0],
  ["CCOC(=O)N1CCC(n2cnc(-c3ccc(F)cc3)c2-c2ccnc(N)n2)CC1 [SB-219952]", 33],
  ["CN(c1ccc2c(c1)nc(NCc1ccc(F)cc1)n2C)c1ccnc(Nc2ccc(CS(C)(=O)=O)cc2)n1.Cl [GW813244]", 3],
  ["O=C(NCC1CC1)c1ccc(-c2cc(C(=O)NC3CC3)ccc2F)cc1 [GW810445]", 0],
  ["Cc1ccc(CC(=O)N2CCc3cc(-c4cn(C)c5ncnc(N)c45)ccc32)cc1 [GSK2634758]", 20]
]}
